Overview of reported ratio UVA/UVB across a group of compounds:
# assay_procedure: UVA/UVB ratio from absorption spectra (Eq. 3) and Boots UVA Star Rating
# Format: physicochemical
# measurement_parameters: chemical sunscreen, no concentration stated
readout_kind: ratio UVA/UVB

CCCCC(CC)COC(=O)C(C#N)=C(c1ccccc1)c1ccccc1 (stereo not shown) [octocrylene, Octocrylene] :: 0.22
CCCCC(CC)COC(=O)c1ccc(Nc2nc(Nc3ccc(C(=O)OCC(CC)CCCC)cc3)nc(Nc3ccc(C(=O)OCC(CC)CCCC)cc3)n2)cc1 (stereo not shown) [ethylhexyl triazone, Ethylhexyl triazone] :: 0.21
CCCCC(CC)COc1ccc(-c2nc(-c3ccc(OC)cc3)nc(-c3ccc(OCC(CC)CCCC)cc3O)n2)c(O)c1 (stereo not shown) :: 0.50
CCCCCCCCCCCCc1cc(C)cc(-n2nc3ccccc3n2)c1O [benzotriazolyl dodecyl p-cresol, Benzotriazolyl dodecyl p-cresol] :: 0.62

Source: patent US20250032569A1
